Each recorded value in this set is attributed to the supplement of paper PMC7877785.

Assignment: determine reported self-splicing fitness (ln) for the given sequences.
# PROTOCOL DETAILS: self-splicing fitness, log relative to wild type (ln ratio); higher = more splicing; Tetrahymena group I intron in knt gene, E. coli kanamycin selection, DiMSum; sequences stand for … in CUCUCU…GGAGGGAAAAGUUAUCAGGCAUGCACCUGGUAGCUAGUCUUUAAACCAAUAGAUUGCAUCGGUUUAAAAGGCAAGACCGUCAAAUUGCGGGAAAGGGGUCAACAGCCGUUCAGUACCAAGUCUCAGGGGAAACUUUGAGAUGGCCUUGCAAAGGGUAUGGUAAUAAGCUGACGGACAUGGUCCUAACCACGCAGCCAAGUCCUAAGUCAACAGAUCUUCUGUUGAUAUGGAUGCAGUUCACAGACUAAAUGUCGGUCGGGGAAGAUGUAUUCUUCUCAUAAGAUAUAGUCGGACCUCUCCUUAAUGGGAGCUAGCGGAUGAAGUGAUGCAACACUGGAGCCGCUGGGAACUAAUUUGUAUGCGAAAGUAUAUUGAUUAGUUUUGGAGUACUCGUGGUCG;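 further: selection with 25 µg/mL kanamycin versus none on LB agar overnight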
# EXPERIMENTAL PARAMETERS: 37 °C
One number for each entry.

[[record]]
record_sequence = "CGGAAGCAAUAUUACGGGGG"
observation_type = "self-splicing fitness (ln)"
result = -3.16

[[record]]
record_sequence = "ACCCAGCAAUAUUACGCUGC"
observation_type = "self-splicing fitness (ln)"
result = -2.88


Respectfully, I request self-splicing fitness (ln) for each entry included below.
1. CUGUAGCAAUAUUACGGUCA
2. CGGAAGCAAUAUUACGACCC
3. CCUAAGCAAUAUUACGUGAG

Found:
1. -2.63
2. -0.781
3. -0.711

// each listed sequence needs a value for self-splicing fitness (ln)
1. UUUUAGCAAUAUUACGGAUA
2. UUACAGCAAUAUUACGCGUC
3. ACUUAGCAAUAUUACGACUA

Found:
1. -1.21
2. -1.32
3. -0.513
